The reported numbers originate from PubChem BioAssay.

Provide the recorded fold change for the entries that follow.
- procedure.details: viability loss with induced miR-34 in A549 – imaging, A549 dox-inducible miR-34, nuclei and caspase counts, primary screen (AID 1347080)
- measurement.parameters: A549 miR-34 inducible, Hoechst nuclei count, 48 h; measured here: relative caspase fold change +Dox/-Dox
Answers are plain numbers.

# annotated cases, reported fold change shown
Cc1nsc(NC(=O)NC2CCc3ccccc3C2)n1 (stereo not given) : 1
CC(C)C[C@H](NC(=O)[C@@H](COC(C)(C)C)NC(=O)[C@H](Cc1ccc(O)cc1)NC(=O)[C@H](CO)NC(=O)[C@H](Cc1c[nH]c2ccccc12)NC(=O)[C@H](Cc1cnc[nH]1)NC(=O)[C@@H]1CCC(=O)N1)C(=O)N[C@@H](CCCN=C(N)N)C(=O)N1CCC[C@H]1C(=O)NNC(N)=O : 1.53

For each of the compounds below, note its fold change.
1. CC1OC(O)C(O)C(O)C1O (stereo not given)
2. CN1CCC(NC(=O)c2cc(-c3c(O)cc(O)cc3Oc3ccc([N+](=O)[O-])cc3)on2)CC1
3. CN1CCN(Cc2cccc3cccnc23)CC1CCO (stereo not given)

RESULT:
1. 1
2. 0.376
3. 1.86

###

- procedure.details: drug combination growth inhibition, ovarian cancer – cell-based, oncology-focused library, rucaparib conditional, profiling panel (AID 1508598)
- measurement.parameters: patient-derived ovarian cancer cells, CellTiter-Glo viability, 144 h; at 0.00122 µM; OCI-P5x cells; without rucaparib
The source made the active and inactive calls.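 The calls were made as follows: active = normalized viability below 100% at a tested concentration; inactive = the rest.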
Pick from yes for active, no for inactive when you respond.

The following molecules have reported results that may help.
O=C(O)c1cc(I)ccc1NC(=O)[C@H](Cc1ccccc1)NCc1ccccc1 : yes
CO[C@H]1C[C@H]2CC[C@@H](C)[C@@](O)(O2)C(=O)C(=O)N2CCCC[C@H]2C(=O)O[C@H]([C@H](C)C[C@@H]2CC[C@H](OP(C)(C)=O)[C@H](OC)C2)CC(=O)[C@H](C)/C=C(\C)[C@@H](O)[C@@H](OC)C(=O)[C@H](C)C[C@H](C)/C=C/C=C/C=C/1C : yes
CCOc1ccc(Cc2cc([C@@H]3O[C@H](CO)[C@@H](O)[C@H](O)[C@@H]3O)ccc2Cl)cc1 : yes
CCCc1ccc(OCC(=O)N(Cc2nc(-c3cccnc3)no2)C(C)C)cc1 : yes
CO[C@H]1/C=C\C=C(\C)C(=O)NC2=CC(=O)C(NCCN(C)C)=C(C[C@@H](C)C[C@H](OC)[C@H](O)[C@@H](C)/C=C(\C)[C@@H]1OC(N)=O)C2=O : no
CO[C@H]1C[C@@H]2CC[C@@H](C)[C@@](O)(O2)C(=O)C(=O)N2CCCC[C@H]2C(=O)O[C@H]([C@@H](C)C[C@@H]2CC[C@@H](OCCO)[C@H](OC)C2)CC(=O)[C@H](C)/C=C(\C)[C@H](O)[C@@H](OC)C(=O)[C@H](C)C[C@H](C)/C=C/C=C/C=C/1C : yes

QUERY: Could you check what this test reported for O=C1[C@H](CC[C@H](O)c2ccc(F)cc2)[C@H](c2ccc(O)cc2)N1c1ccc(F)cc1 ?
RESULT: no

###

- procedure.details: MELAS cybrid and Rieske KO viability enhancers – cell-based, MELAS cybrids, Rieske KO mouse fibroblasts, CellTiter-Glo, primary screen (AID 1508586);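 note: z relative to plate mean and SD of compound and empty wells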
- measurement.parameters: MELAS cybrid survival, low glucose, CellTiter-Glo 48 h
Active and inactive are the calls of the source.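 Rule for the calls: active = mean z-score across replicates of 1.96 or higher in either the MELAS or the Rieske mutant cell line; inactive = the rest.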
Valid outcomes are listed here; reply with one: active, inactive

CC(C)CN1CC(OCc2cccc(F)c2)CN(C(=O)c2cccc(N3CCNC3=O)c2)CC1=O (stereo not drawn) : inactive
COC(=O)c1c(NC(C)=O)c2cc(NC3CCOCC3)cnc2n1CCc1ccc(OC)cc1 : inactive
Cc1nn(C)cc1CNc1cc(C(=O)NCc2cn3ccccc3n2)cc(S(=O)(=O)NC(C)C)c1 : inactive

QUERY: Recorded test outcome, item COC(=O)c1c(NC(=O)c2ccco2)c2cc(NC3CCOCC3)cnc2n1C
RESULT: inactive

QUERY: Entry to check: O=c1[nH]cnc2c1ncn2C1OC(CO)C(O)C1O (stereo not drawn)
RESULT: inactive

QUERY: O=C(O)CCCc1nc(-c2cccc([N+](=O)[O-])c2)no1 , same question.
RESULT: inactive

QUERY: Another: O=C(NN=Cc1ccc([N+](=O)[O-])o1)c1ccc(O)cc1
RESULT: inactive

QUERY: Would you kindly repeat that for CCCC1CC(C(=O)NC(C(C)O)[C@@H]2OC(SC)C(O)C(O)C2O)N(C)C1 (stereo partly drawn) ?
RESULT: inactive
